- Test system: RPMI-8226
- measurementNotes: NCI tumour cell line growth inhibition, 48 h
Active and inactive are the calls of the source. Cut-off read from the data, not from the text of the source: active = GI50 up to about 1.1 µM and inactive = higher.
Your reply should match one of these outcome classes. active, inactive

Reference set (5 entries):
INSERT INTO measurements (molecule, measurementtarget, category) VALUES
  ('COC(=O)c1c(-c2ccccc2)sc(-c2cccc3ccccc23)c1C(=O)OC', 'RPMI-8226', 'inactive'),
  ('COc1cc(C2c3cc4c(cc3[C@@H](NCCN3CCCCC3)C3COC(=O)[C@H]23)OCO4)cc(OC)c1O (stereo not given in full)', 'RPMI-8226', 'active'),
  ('C[C@]12CC[C@H](O)CC1=CC[C@@H]1C2CC[C@]2(C)C(=O)N(N)C(=O)CC12 (stereo not given in full)', 'RPMI-8226', 'inactive'),
  ('O=C1C=CC(=O)c2c1cc([N+](=O)[O-])c1ccoc21', 'RPMI-8226', 'inactive'),
  ('COc1ccc(/C(Cl)=C(\C=O)c2ccc(Br)cc2)cc1OC', 'RPMI-8226', 'inactive');

Incoming: # outcome recorded in this test, key = `COc1ccc(/N=N/C(=N\c2ccc(Cl)cc2)c2ccc(N(CCC#N)CCC#N)cc2)cc1`
Outgoing: inactive

Incoming: Per the records of this test, what outcome belongs to `COc1cc(NCC(C#N)C#N)ccc1/N=N/c1ccc([N+](=O)[O-])cc1` ?
Outgoing: inactive

Incoming: Tell me the recorded outcome of this test for `CN(C)c1nc(N(C)C)nc(N(C)CN(C)c2nc(N(C)C)nc(N(C)C)n2)n1` .
Outgoing: inactive

Incoming: Hi team, can someone confirm the assay call for O=C(C/C(=N/O)C(=O)NC1=C(Cl)C(=O)c2ccccc2C1=O)CC(c1ccccc1)c1c(O)c2ccccc2oc1=O (stereo not given) ?
Outgoing: inactive
